Form field: % Change Compared to pH 7.4 + Calcium (one value per entry).
- TGT: T1, recombinant, soluble human ASGR-1 (human, UniProt P07306 62-291)
- T1 construct: biotinylated in the binning assay; also called soluble huASGR-1; Soluble ASGR-1 (Amgen)
- T1 sequence: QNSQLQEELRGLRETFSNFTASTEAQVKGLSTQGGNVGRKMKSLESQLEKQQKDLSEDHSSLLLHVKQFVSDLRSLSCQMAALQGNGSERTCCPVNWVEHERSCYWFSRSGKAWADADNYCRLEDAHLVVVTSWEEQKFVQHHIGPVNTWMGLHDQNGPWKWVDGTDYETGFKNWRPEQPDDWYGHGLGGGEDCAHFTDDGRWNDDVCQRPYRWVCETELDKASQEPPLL
- EXPERIMENTAL PROTOCOL: Octet BLI dissociation, pH 5.6 minus calcium
Please reply with the bare figure in % and do not write the unit itself.

In the examples that follow, each entry is paired with its recorded % Change Compared to pH 7.4 + Calcium.
194A4 (antibody, V domains shown, hybridoma mAb) VH: QVQLVQSGTEVKKPGASLKVSCKASGYTFTVYYLNWVRQAPGQGLEWMGWINPNSGGTNYAQKFQGRVTMTRDTSISTAYMELSRLRSDDTAVYYCARGYDILTGWGQGTLVTVSS VL: EIVLTQSPGTLSLSPGERATLSCRASRGVSNIYLAWYQQKPGQAPRLLIYGASNRATGIPDRFSGSGSGTDFTLTISRLEPEDFAVYYCQHNDYSMFTFGPGTKVDIK = -3
219H1 (antibody, V domains shown, hybridoma mAb) VH: QVQLVESGGGVVQPGRSLRLSCAASGFTFSRYGMHWVRQAPGKGLEWVAVIWYDGSNKHYADSVKGRFTISRDNSKNTLYLQMNSLRGEDTAVYYCARDRGVGYNGMDVWGQGTTVTVSS VL: DIQMTQSPSSQSASVGDRVTITCRASQGISNYLDWFQQKPGKAPKSLIYSASNLQSGVPSKFSGSRSGTDFTLTISSLQPEDFATYYCQHYSNYPLTFGGGTKVEIK = 1

Q: I would be grateful if you could share the reported % Change Compared to pH 7.4 + Calcium for 148H10 (antibody, V domains shown, hybridoma mAb) VH: QVQLVESGGGVVQPGRSLRLSCAASGFTFSSYGMHWVRQAPGKGLEWVAVIWYDGSNKYYGDSVKGRFTISRDNSKNTLYLQMNSLRAEDTAVYYCARRYSSSWSGGMDVWGQGTTVTVSS VL: DIVMTQTPLSLSVTPGQPASISCKSSQSLLHSEGKTYLYWYLQKPGQPPQLLIYEVSYRVSGVPDRFSGSGSGTDFTLKISRVEAEDVGVYYCMQSIQLPLTFGGGTKVEIK .
Result: 47

Q: Quick one: % Change Compared to pH 7.4 + Calcium for 49C1 (antibody, V domains shown, hybridoma mAb) VH: QVQLVESGGGVVQPGRSLRLSCTASGFTFSSYGMHWVRQAPGKGLEWVAVIWYDGSNKYYADSVKGRFTISRDNSKNTLYLQMNSLRAEDTAVYYCARRYSSSWSGGMDVWGQGTTVTVSS VL: DIVMTQTPLSLSVTPGQPASISCKSSQSLLHREGKTYLYWYLQKPGQAPQFLIFEVSHRFSGVPDRFSGSGSGTDFTLKISRVEAEDVGVYYCMQSIQIPITLGQGTRLEIK ?
Result: 64

Q: # lookup: % Change Compared to pH 7.4 + Calcium of 49F10 (antibody, V domains shown, hybridoma mAb) VH: QVQLVQSGAEVKKPGASVKVSCKASGYTFTGYHMHWVRQAPGQGLEWMGWINPNNNATNYAQNFQGRVTLTRDTSISTAYMELSRLRSDDTAVYYCARDGTSSFDFWGQGTLVTVSS VL: DIQMTQSPSSVSASVGDRVTITCRASQGISRWLAWYQQKPGKAPKVLIYAASTLQSGVPSRFSGSGSGTDFTLTISSLQPEDFATYYCQQANSFPFTFGPGTKVDIK
Result: 8
